The following compounds are listed with their measured RP-LC retention time values.
Run Description: gradient 5% acetonitrile 3 min, to 50% in 2 min, to 85% in 15 min, held 3 min, 100 µL/min
Condition Summary: column: Zorbax Extend-C18 2.1 x 50 mm; eluents: water / acetonitrile, 0.1% formic acid
Kindly provide the numeric value in s only, without the unit symbol.

Field: example entries. Status: answers known.
Compound	Endpoint Unit	RP-LC retention time
CCN1C(=O)CCc2cc(NC(=O)C3CCC3)ccc21	s	691
N#Cc1cccc(C(=O)NC2CCN(c3cc(-c4ccc(F)cc4)[nH]n3)C2)c1 (stereo not drawn)	s	712
O=C1CN(C(=O)Cc2ccccc2Cl)C2(CCCC2)CN1	s	727
CN(C)c1nccnc1OC1CCN(C(=O)C2CCOCC2)C1 (stereo not drawn)	s	605

Prompt: Return RP-LC retention time (reported value) for this compound: CC1Cc2cc(-c3cc(CNC(=O)c4ccccc4C(F)(F)F)no3)ccc2O1 (stereo not drawn)
Completion: 875

Prompt: Return RP-LC retention time (reported value) for this compound: COc1ccccc1NC(=O)NCC(O)c1ccsc1 (stereo not drawn)
Completion: 684
